# target or test system: p110δ/p85α (Homo sapiens)
# assay name: Transcreener KINASE Assay, kinase inhibition of p110δ/p85α
# Assay type: biochemical
# protocol conditions: 1 uM test compound
Listed compounds paired with reported PI3Kδ IH % @ 1 uM
readout label: PI3Kδ IH % @ 1 uM (%)

>  <structure smiles string>
N#Cc1ccc(-c2n[nH]c3ncnc(N4CC[C@H]4c4nn5ccc(Cl)c5c(=O)n4-c4ccccc4)c23)cn1

>  <rel>
=

>  <experimental result>
96.3

$$$$
>  <structure smiles string>
Cn1cc(-c2cnc(N)nc2N2CC[C@H]2c2nn3ccc(Cl)c3c(=O)n2-c2ccccc2)cn1

>  <rel>
=

>  <experimental result>
47.0

$$$$
>  <structure smiles string>
Cc1cccc(-n2c([C@@H]3CCCN3c3ncnc4[nH]cnc34)nn3ccc(Cl)c3c2=O)n1

>  <rel>
=

>  <experimental result>
92.1

$$$$
>  <structure smiles string>
C[S@@+]([O-])c1c[nH]c2ncnc(N3C[C@@H](C#N)C[C@H]3c3nn4ccc(Cl)c4c(=O)n3-c3cccc(F)c3)c12

>  <rel>
=

>  <experimental result>
92.6

$$$$
>  <structure smiles string>
Cc1ccn2nc([C@@H]3CCCN3c3nc(N)nc4[nH]cnc34)n(-c3ccccc3)c(=O)c12

>  <rel>
>

>  <experimental result>
100

$$$$
>  <structure smiles string>
Cc1nc(N)nc(N2CC[C@H]2c2nn3ccc(Cl)c3c(=O)n2-c2cccc(F)c2)c1C#N

>  <rel>
=

>  <experimental result>
95.5

$$$$
>  <structure smiles string>
Cc1cc(Cl)c2c(=O)n(-c3ccccc3)c([C@@H]3CCN3c3ncnc4[nH]cnc34)nn12

>  <rel>
=

>  <experimental result>
34.2

$$$$

###

# target or test system: p110β/p85α (Homo sapiens)
# Sequence (P42338 whole entry, one chain of several): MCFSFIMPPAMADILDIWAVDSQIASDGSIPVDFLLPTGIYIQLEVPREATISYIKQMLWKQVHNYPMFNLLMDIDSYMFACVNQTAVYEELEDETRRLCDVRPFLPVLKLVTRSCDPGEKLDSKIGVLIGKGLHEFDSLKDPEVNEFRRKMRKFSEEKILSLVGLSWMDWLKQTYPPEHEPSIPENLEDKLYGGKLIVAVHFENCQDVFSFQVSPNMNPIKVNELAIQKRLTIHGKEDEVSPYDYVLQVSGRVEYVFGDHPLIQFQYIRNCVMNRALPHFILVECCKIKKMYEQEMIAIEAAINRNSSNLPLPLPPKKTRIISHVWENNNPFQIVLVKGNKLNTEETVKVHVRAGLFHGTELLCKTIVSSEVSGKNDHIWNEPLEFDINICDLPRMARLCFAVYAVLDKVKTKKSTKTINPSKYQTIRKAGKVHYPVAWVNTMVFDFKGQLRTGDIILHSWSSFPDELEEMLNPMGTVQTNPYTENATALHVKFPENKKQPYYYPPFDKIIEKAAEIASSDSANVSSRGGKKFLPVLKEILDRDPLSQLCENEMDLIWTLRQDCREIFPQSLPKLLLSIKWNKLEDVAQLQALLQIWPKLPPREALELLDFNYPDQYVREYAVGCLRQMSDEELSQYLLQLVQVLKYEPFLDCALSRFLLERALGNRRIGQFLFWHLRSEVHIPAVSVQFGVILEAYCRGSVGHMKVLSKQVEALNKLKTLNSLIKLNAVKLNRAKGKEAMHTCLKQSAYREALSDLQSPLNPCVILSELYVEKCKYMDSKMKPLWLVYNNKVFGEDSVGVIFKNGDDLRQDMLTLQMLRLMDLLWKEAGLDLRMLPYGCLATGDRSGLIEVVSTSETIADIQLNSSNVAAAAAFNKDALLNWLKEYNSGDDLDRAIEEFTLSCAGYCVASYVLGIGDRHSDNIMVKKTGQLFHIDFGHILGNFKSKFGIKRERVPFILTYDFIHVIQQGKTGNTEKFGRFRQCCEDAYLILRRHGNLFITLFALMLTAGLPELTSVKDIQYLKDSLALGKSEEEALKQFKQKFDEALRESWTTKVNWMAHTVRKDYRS
# assay name: Transcreener KINASE Assay, kinase inhibition of p110β/p85α
# Format: biochemical
# protocol conditions: 1 uM test compound

>  <compound>
CC(=O)c1c[nH]c2ncnc(N3CCC[C@H]3c3nn4ccc(F)c4c(=O)n3-c3ccccc3)c12

>  <target or test system>
p110β/p85α (Homo sapiens)

>  <rel>
=

>  <PI3Kβ IH % @ 1 uM [%]>
85.0

$$$$
>  <compound>
CC(O)c1cnc(N)nc1N1CC[C@H]1c1nn2ccc(Cl)c2c(=O)n1-c1ccccc1 (stereo partly shown)

>  <target or test system>
p110β/p85α (Homo sapiens)

>  <rel>
=

>  <PI3Kβ IH % @ 1 uM [%]>
5

$$$$
>  <compound>
Nc1ncc(C(F)(F)F)c(N2CCC[C@H]2c2nn3ccc(CO)c3c(=O)n2-c2ccccc2)n1

>  <target or test system>
p110β/p85α (Homo sapiens)

>  <rel>
=

>  <PI3Kβ IH % @ 1 uM [%]>
1.5

$$$$
>  <compound>
N#Cc1cnc(N)nc1N1CCC[C@H]1c1nn2ccc(F)c2c(=O)n1-c1ccccc1

>  <target or test system>
p110β/p85α (Homo sapiens)

>  <rel>
=

>  <PI3Kβ IH % @ 1 uM [%]>
75.2

$$$$
>  <compound>
O=c1c2c(C3CC3)ccn2nc([C@@H]2CCCN2c2ncnc3[nH]cnc23)n1-c1ccccc1

>  <target or test system>
p110β/p85α (Homo sapiens)

>  <rel>
=

>  <PI3Kβ IH % @ 1 uM [%]>
−7.4

$$$$
>  <compound>
CC(C)Cn1c([C@@H]2CCCN2c2ncnc3[nH]cc(C#N)c23)nn2c(F)ccc2c1=O

>  <target or test system>
p110β/p85α (Homo sapiens)

>  <rel>
=

>  <PI3Kβ IH % @ 1 uM [%]>
34.5

$$$$
>  <compound>
Nc1ncc(-c2n[nH]c3ncnc(N4CCC[C@H]4c4nn5ccc(Cl)c5c(=O)n4-c4ccccc4)c23)cn1

>  <target or test system>
p110β/p85α (Homo sapiens)

>  <rel>
>

>  <PI3Kβ IH % @ 1 uM [%]>
100

$$$$

###

# target or test system: p110γ (Homo sapiens, UniProt P48736)
# Sequence (P48736 whole entry): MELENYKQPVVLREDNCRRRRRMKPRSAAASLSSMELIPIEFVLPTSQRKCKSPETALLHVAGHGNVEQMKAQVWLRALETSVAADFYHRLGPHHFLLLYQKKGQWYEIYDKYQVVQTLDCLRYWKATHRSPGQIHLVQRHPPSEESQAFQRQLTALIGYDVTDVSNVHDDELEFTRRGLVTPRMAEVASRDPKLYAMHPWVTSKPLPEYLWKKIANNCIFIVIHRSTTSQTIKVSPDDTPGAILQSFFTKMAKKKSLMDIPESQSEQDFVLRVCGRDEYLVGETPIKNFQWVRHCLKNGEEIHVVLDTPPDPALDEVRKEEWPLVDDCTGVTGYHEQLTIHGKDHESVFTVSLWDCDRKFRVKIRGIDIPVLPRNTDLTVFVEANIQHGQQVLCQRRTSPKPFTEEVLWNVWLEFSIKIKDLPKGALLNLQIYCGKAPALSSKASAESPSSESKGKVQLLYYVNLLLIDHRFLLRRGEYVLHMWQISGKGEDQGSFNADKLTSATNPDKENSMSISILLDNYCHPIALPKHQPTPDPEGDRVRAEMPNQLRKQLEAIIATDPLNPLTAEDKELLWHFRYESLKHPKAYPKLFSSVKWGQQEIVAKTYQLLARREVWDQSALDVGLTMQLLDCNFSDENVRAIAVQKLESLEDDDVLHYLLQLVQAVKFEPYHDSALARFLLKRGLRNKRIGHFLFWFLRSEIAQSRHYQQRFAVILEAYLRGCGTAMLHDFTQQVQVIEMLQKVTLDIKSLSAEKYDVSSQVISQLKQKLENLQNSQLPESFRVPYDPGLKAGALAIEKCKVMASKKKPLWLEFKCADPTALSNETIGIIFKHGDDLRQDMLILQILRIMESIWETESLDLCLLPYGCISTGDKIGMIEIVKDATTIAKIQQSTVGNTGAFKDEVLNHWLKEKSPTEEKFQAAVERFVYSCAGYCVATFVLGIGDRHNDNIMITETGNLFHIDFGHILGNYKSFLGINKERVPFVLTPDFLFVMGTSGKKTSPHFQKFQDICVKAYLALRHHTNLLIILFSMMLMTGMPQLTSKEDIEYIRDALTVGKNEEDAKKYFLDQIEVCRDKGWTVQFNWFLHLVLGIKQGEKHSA
# assay name: Transcreener KINASE Assay, kinase inhibition of p110γ
# Format: biochemical
# protocol conditions: 1 uM test compound
I would appreciate it if you labelled entries TRUE when PI3Kγ IH % @ 1 uM is 90% or higher, otherwise FALSE.

>  <compound>
N#Cc1c[nH]c2ncnc(N3C[C@@H](C#N)C[C@H]3c3nn4ccc(Cl)c4c(=O)n3-c3ccccc3)c12 [Compound 360]

>  <label>
TRUE

$$$$
>  <compound>
Cc1nc(N)nc(N2CC[C@H]2c2nn3ccc(Cl)c3c(=O)n2-c2ccccc2)c1Cl [Compound 377]

>  <label>
TRUE

$$$$
>  <compound>
C#Cc1cnc(N)nc1N1CCC[C@H]1c1nn2ccc(Cl)c2c(=O)n1-c1ccccc1 [Compound 238]

>  <label>
TRUE

$$$$
>  <compound>
CC(=O)c1cnc(N)nc1N1CCCC1c1cn2ccc(Cl)c2c(=O)n1-c1ccccc1 (stereo not drawn) [Compound 321]

>  <label>
TRUE

$$$$
>  <compound>
CC(=O)c1c(N)ncnc1NC(C)c1cn2ccc(Cl)c2c(=O)n1-c1ccccc1 (stereo not drawn) [Compound 274]

>  <label>
FALSE

$$$$
>  <compound>
C[S+]([O-])c1c[nH]c2ncnc(N3CC[C@H]3c3nn4ccc(Cl)c4c(=O)n3-c3ccc(F)cc3)c12 (stereo partly drawn) [Compound 199]

>  <label>
TRUE

$$$$
>  <compound>
N#Cc1c(N)ncnc1N1CC[C@H]1c1nn2ccc(Br)c2c(=O)n1-c1ccccc1 [Compound 194]

>  <label>
FALSE

$$$$
>  <compound>
C[S@+]([O-])c1c[nH]c2ncnc(N3CCC[C@H]3c3nn4ccc(Cl)c4c(=O)n3-c3ccccn3)c12 [Compound 388]

>  <label>
FALSE

$$$$
>  <compound>
O=C(c1c[nH]c2ncnc(N3CCC[C@H]3c3nn4ccc(Cl)c4c(=O)n3-c3ccccc3)c12)N1CCOCC1 [Compound 164]

>  <label>
FALSE

$$$$
>  <compound>
Cc1nc(N)nc(N2CCC[C@H]2c2nn3ccc(Cl)c3c(=O)n2-c2ccccc2)n1 [Compound 201]

>  <label>
TRUE

$$$$
>  <compound>
COc1nc(N)nc(N2CC[C@H]2c2nn3ccc(Cl)c3c(=O)n2-c2ccccc2)c1C#N [Compound 378]

>  <label>
TRUE

$$$$
>  <compound>
Nc1nc(N2CC[C@H]2c2nn3ccc(Cl)c3c(=O)n2-c2ccccc2)c2ncccc2n1 [Compound 334]

>  <label>
FALSE

$$$$
>  <compound>
N#Cc1cccc(-n2c([C@@H]3CCCN3c3ncnc4[nH]cc(C#N)c34)nn3ccc(Cl)c3c2=O)c1 [Compound 39]

>  <label>
FALSE

$$$$
>  <compound>
CC(Nc1ncnc(N)c1C#N)c1cc2cccn2c(=O)n1-c1ccccc1 (stereo not drawn) [Compound 120]

>  <label>
FALSE

$$$$

###

Listed compounds paired with reported PI3Kδ IH % @ 1 uM
# target or test system: p110δ/p85α (Homo sapiens, UniProt O00329)
# Sequence (O00329 whole entry): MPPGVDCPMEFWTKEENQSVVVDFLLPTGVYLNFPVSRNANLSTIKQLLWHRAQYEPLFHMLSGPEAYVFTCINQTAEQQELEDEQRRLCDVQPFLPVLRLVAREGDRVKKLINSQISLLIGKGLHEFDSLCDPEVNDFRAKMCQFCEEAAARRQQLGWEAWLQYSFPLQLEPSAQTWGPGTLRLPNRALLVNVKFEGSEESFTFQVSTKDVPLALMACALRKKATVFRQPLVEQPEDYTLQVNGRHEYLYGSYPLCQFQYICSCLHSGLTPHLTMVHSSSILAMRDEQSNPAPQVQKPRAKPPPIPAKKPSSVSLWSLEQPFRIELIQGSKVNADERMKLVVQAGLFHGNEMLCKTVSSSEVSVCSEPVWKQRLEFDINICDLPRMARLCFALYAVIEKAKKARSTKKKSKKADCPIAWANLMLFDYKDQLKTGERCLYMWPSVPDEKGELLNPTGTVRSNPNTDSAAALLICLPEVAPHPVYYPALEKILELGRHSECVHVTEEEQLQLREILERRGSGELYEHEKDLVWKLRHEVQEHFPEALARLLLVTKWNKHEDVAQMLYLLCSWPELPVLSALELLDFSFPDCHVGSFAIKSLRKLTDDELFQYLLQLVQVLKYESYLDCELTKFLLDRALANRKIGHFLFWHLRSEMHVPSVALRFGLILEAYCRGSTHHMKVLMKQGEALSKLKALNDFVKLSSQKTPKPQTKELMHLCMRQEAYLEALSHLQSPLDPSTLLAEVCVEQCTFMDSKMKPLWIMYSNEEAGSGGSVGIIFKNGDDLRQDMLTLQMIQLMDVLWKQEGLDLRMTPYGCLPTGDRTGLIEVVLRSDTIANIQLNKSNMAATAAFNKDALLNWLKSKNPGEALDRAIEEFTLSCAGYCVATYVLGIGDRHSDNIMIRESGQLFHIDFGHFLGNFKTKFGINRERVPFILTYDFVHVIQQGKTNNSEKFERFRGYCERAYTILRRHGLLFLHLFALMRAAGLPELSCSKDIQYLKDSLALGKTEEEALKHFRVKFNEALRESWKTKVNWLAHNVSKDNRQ
# Sequence (P27986 whole entry partner): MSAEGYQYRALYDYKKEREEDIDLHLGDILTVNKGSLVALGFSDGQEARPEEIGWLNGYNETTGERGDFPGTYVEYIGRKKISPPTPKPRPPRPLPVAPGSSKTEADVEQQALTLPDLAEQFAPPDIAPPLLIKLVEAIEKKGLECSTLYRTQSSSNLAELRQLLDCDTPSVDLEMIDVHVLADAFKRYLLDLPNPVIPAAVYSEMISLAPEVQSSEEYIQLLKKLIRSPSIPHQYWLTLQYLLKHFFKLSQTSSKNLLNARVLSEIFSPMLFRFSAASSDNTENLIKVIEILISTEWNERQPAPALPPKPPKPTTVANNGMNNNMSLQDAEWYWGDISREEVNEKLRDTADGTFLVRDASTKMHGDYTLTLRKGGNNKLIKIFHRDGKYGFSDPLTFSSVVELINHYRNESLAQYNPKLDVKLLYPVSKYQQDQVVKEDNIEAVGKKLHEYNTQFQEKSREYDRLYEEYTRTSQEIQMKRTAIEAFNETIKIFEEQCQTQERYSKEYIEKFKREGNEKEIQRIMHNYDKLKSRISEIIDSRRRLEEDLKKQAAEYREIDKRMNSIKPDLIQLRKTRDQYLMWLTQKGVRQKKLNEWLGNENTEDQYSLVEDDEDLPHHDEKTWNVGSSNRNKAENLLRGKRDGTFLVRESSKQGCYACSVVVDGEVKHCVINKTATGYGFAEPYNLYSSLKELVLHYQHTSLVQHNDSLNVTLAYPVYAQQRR
# assay name: Transcreener KINASE Assay, kinase inhibition of p110δ/p85α
# Format: biochemical
# protocol conditions: 1 uM test compound
readout label: PI3Kδ IH % @ 1 uM (%)

>  <compound>
O=c1c2c(Cl)ccn2nc([C@@H]2CCCN2c2ncnc3[nH]ccc23)n1-c1ccccc1

>  <readout label>
PI3Kδ IH % @ 1 uM

>  <unit label>
%

>  <rel>
>

>  <experimental result>
100

$$$$
>  <compound>
O=c1c2c(F)ccn2nc([C@@H]2CCCN2c2ncnc3[nH]cnc23)n1-c1cccc(F)c1

>  <readout label>
PI3Kδ IH % @ 1 uM

>  <unit label>
%

>  <rel>
>

>  <experimental result>
100

$$$$
>  <compound>
N#Cc1cnc(N)nc1N1CCC[C@H]1c1nn2ccc(Cl)c2c(=O)n1-c1ccccc1

>  <readout label>
PI3Kδ IH % @ 1 uM

>  <unit label>
%

>  <rel>
>

>  <experimental result>
100

$$$$
>  <compound>
CC(Nc1ncnc2[nH]cnc12)c1cn2ccc(Cl)c2c(=O)n1-c1ccc(F)cc1 (stereo not shown)

>  <readout label>
PI3Kδ IH % @ 1 uM

>  <unit label>
%

>  <rel>
=

>  <experimental result>
98.2

$$$$
>  <compound>
CC(=O)c1cnc(N)nc1N1CC[C@H]1c1nn2ccc(C#N)c2c(=O)n1-c1ccccc1

>  <readout label>
PI3Kδ IH % @ 1 uM

>  <unit label>
%

>  <rel>
>

>  <experimental result>
100

$$$$
>  <compound>
Cc1ccn2cc(C(C)Nc3ncnc(N)c3C#N)n(-c3ccccc3)c(=O)c12 (stereo not shown)

>  <readout label>
PI3Kδ IH % @ 1 uM

>  <unit label>
%

>  <rel>
>

>  <experimental result>
100

$$$$
>  <compound>
CC(Nc1ncnc2[nH]cc(F)c12)c1cn2ccc(Cl)c2c(=O)n1-c1ccccc1 (stereo not shown)

>  <readout label>
PI3Kδ IH % @ 1 uM

>  <unit label>
%

>  <rel>
>

>  <experimental result>
100

$$$$
>  <compound>
C[C@H]1CCN(c2ncnc3[nH]cc(C#N)c23)C1c1nn2ccc(Cl)c2c(=O)n1-c1ccccc1 (stereo partly shown)

>  <readout label>
PI3Kδ IH % @ 1 uM

>  <unit label>
%

>  <rel>
>

>  <experimental result>
100

$$$$
>  <compound>
Cc1ccn2cc(C(C)Nc3ncnc4[nH]cnc34)n(-c3ccccc3)c(=O)c12 (stereo not shown)

>  <readout label>
PI3Kδ IH % @ 1 uM

>  <unit label>
%

>  <rel>
>

>  <experimental result>
100

$$$$
>  <compound>
C[S+]([O-])c1cnc(N)nc1N1CC[C@H]1c1nn2ccc(Cl)c2c(=O)n1-c1ccccc1 (stereo partly shown)

>  <readout label>
PI3Kδ IH % @ 1 uM

>  <unit label>
%

>  <rel>
=

>  <experimental result>
35.1

$$$$
>  <compound>
Nc1nc2c(c(N3CCCC3c3cn4ccc(Cl)c4c(=O)n3-c3ccccc3)n1)C(=O)CCN2 (stereo not shown)

>  <readout label>
PI3Kδ IH % @ 1 uM

>  <unit label>
%

>  <rel>
=

>  <experimental result>
99.5

$$$$
>  <compound>
COCc1ccn2nc([C@@H]3CCCN3c3ncnc4[nH]cnc34)n(-c3ccccc3)c(=O)c12

>  <readout label>
PI3Kδ IH % @ 1 uM

>  <unit label>
%

>  <rel>
=

>  <experimental result>
95.9

$$$$
>  <compound>
O=c1c2c(Cl)ccn2nc([C@@H]2CCN2c2ncnc3[nH]ccc23)n1-c1ccccc1

>  <readout label>
PI3Kδ IH % @ 1 uM

>  <unit label>
%

>  <rel>
=

>  <experimental result>
81.1

$$$$
>  <compound>
Nc1nc2c(c(N3CCC[C@H]3c3nn4ccc(Cl)c4c(=O)n3-c3ccccc3)n1)C(=O)CCN2

>  <readout label>
PI3Kδ IH % @ 1 uM

>  <unit label>
%

>  <rel>
=

>  <experimental result>
96.8

$$$$
>  <compound>
N#Cc1cnc(N)nc1N1C[C@@H](F)C[C@H]1c1nn2ccc(F)c2c(=O)n1-c1ccccc1

>  <readout label>
PI3Kδ IH % @ 1 uM

>  <unit label>
%

>  <rel>
>

>  <experimental result>
100

$$$$
>  <compound>
O=c1c2c(Cl)ccn2nc([C@@H]2CCCCN2c2ncnc3[nH]cnc23)n1-c1ccccc1

>  <readout label>
PI3Kδ IH % @ 1 uM

>  <unit label>
%

>  <rel>
=

>  <experimental result>
94.6

$$$$
